Values from PubChem BioAssay AID1626

tested on: M. tuberculosis H37Rv growth inhibition; assay: M. tuberculosis H37Rv growth inhibitors, H37Rv strain (AID 1626)
pIC50: −log10 of the molar value.
ENDPOINT LABEL: pIC50

# example entries with known answers
{"MOLECULAR STRING": "CC(=O)n1cc(N(C(=O)CCl)c2ccc(Cl)cc2)c2ccccc21", "ENDPOINT LABEL": "pIC50", "RESULT": 5.05}
{"MOLECULAR STRING": "CC1CCN(c2nc(-c3ccncc3)nc3ccccc23)CC1", "ENDPOINT LABEL": "pIC50", "RESULT": 5.34}
{"MOLECULAR STRING": "CCOc1ccc(N=Cc2c(O)n(-c3cc(C)cc(C)c3)c(=O)[nH]c2=O)cc1", "ENDPOINT LABEL": "pIC50", "RESULT": "> 6.71"}
{"MOLECULAR STRING": "COc1ccc(Cn2c(SCc3ccc(C)cc3)nc3cc(OC)c(OC)cc3c2=N)cc1Cl", "ENDPOINT LABEL": "pIC50", "RESULT": 5.60}
{"MOLECULAR STRING": "Cc1ccccc1Nc1c(-c2ccccn2)nc2c(C)cccn12", "ENDPOINT LABEL": "pIC50", "RESULT": 4.69}
{"MOLECULAR STRING": "CCOC(=O)c1ccc(NC(=O)c2cc3ccccc3o2)cc1", "ENDPOINT LABEL": "pIC50", "RESULT": 5.33}

Ask | Param item = Nc1nc(-c2ccc(F)cc2)cs1 ; retrieve measured pIC50.
Reply | 4.62

Ask | # pIC50 lookup, item CSc1ccc(N=Nc2c(C)[nH]n(C)c2=O)cc1
Reply | 5.13

Ask | Recorded pIC50 for CCOC(=O)N1CCN(C(=O)CSc2nnc(-c3cc(OC)cc(OC)c3)o2)CC1 , please?
Reply | 5.55

Ask | Item under review: CCOC(=O)COc1ccc2c(=O)c(-c3ccccc3)coc2c1 . Reported pIC50?
Reply | > 6.71

Ask | Sample CCOc1ccccc1/C=C/C(=O)c1ccc(Cl)cc1 — what was its pIC50?
Reply | 4.61

###

system: M. tuberculosis H37Rv growth inhibition; assay: M. tuberculosis H37Rv growth inhibitors, H37Rv strain (AID 1626); conditions: measured here: Vero cell cytotoxicity
ENDPOINT LABEL: CC50 (µM)
Dear colleague, please return just the value in µM, with no unit written.

{"MOLECULE": "O=C(CCl)NC1CCCc2ccccc21 (stereo not given)", "CC50 (µM)": 32.5}
{"MOLECULE": "CC(C)C(=O)N1CCN(c2ccc(NC(=O)c3ccc4c(c3)OCCO4)cc2Cl)CC1", "CC50 (µM)": 19.8}
{"MOLECULE": "O=C(Nc1nnc(-c2ccco2)o1)c1ccc([N+](=O)[O-])s1", "CC50 (µM)": 16.6}
{"MOLECULE": "C=C1C(=O)[C@@]23[C@H](O)C[C@@H]4C(C)(C)CC[C@H](O)[C@@]4(C)[C@@H]2CC[C@@H]1[C@H]3O", "CC50 (µM)": 5.78}
{"MOLECULE": "COc1cnc(-c2ccccn2)nc1Sc1ccc(F)cc1", "CC50 (µM)": 19.2}

Now let's try a different one.
Ask | Given CCOc1ccc(-c2csc(/C(C#N)=C\c3ccc(O)c([N+](=O)[O-])c3)n2)cc1 , state its recorded CC50.
Reply | 10.9

###

We begin with a simple list: items and their reported IC90.
system: M. tuberculosis H37Rv growth inhibition; test: M. tuberculosis H37Rv growth inhibitors, H37Rv strain (AID 1626); settings: measured here: IC90 against H37Rv
The response must be a number in µM with no trailing unit.

{"MOLECULAR STRING": "COc1cccc(/C=C2\\Sc3ccc(C(=O)NCc4cccnc4)cc3N(C)C2=O)c1", "QUANTITY UNIT": "µM", "IC90": 6.21}
{"MOLECULAR STRING": "c1ccc(CCNc2ccnc3cc4ccccc4cc23)cc1", "QUANTITY UNIT": "µM", "IC90": 1.69}
{"MOLECULAR STRING": "Cc1cc(OCc2nnc(SCC(=O)OC3CCCCC3)o2)ccc1Cl", "QUANTITY UNIT": "µM", "IC90": 2.57}

Ask | What measured IC90 goes with O=C(Nc1nc(-c2ccccn2)cs1)c1cc2ccccc2o1 ?
Reply | 42.6

###

system: M. tuberculosis H37Rv growth inhibition; test: M. tuberculosis H37Rv growth inhibitors, H37Rv strain (AID 1626)
ENDPOINT LABEL: IC50

Solved cases below.
{"MOLECULE": "CS(=O)(=O)Cc1nc2ccccc2oc1=O", "ASSAYED TARGET": "M. tuberculosis H37Rv growth inhibition", "IC50": "1.45 µM"}
{"MOLECULE": "CN1CCN(c2ccccc2NC(=O)c2ccc(-c3ccc(Cl)cc3Cl)o2)CC1", "ASSAYED TARGET": "M. tuberculosis H37Rv growth inhibition", "IC50": "65.2 µM"}
{"MOLECULE": "Cc1ccc(C(C)C)c(OCc2nn(CC(=O)c3ccc(OC(F)F)cc3)c3[n+]2CCCCC3)c1", "ASSAYED TARGET": "M. tuberculosis H37Rv growth inhibition", "IC50": "1.07 µM"}
{"MOLECULE": "Cc1ccc(-c2nc(C(Cl)Cl)c3ccccc3n2)cc1", "ASSAYED TARGET": "M. tuberculosis H37Rv growth inhibition", "IC50": "4.4 µM"}
{"MOLECULE": "Cc1cc(=O)oc2cc(OC(=O)c3ccco3)ccc12", "ASSAYED TARGET": "M. tuberculosis H37Rv growth inhibition", "IC50": "61.6 µM"}

Ask | Recorded IC50 of COc1ccc(-c2nc(CN3CCCCC3c3nccn3C)c(C)o2)c(C)c1C (stereo unspecified) , please.
Reply | 18.1 µM

Ask | Item O=C(Nc1ccc(CSc2ccccc2)cc1)c1ccc(CN2CCOCC2)cc1 has what recorded IC50?
Reply | 32.2 µM

###

tested on: M. tuberculosis H37Rv growth inhibition; assay: M. tuberculosis H37Rv growth inhibitors, H37Rv strain (AID 1626)
pIC50: −log10 of the molar value.
ENDPOINT LABEL: pIC50

As a guide, the following entries are already answered.
{"COMPOUND": "CCn1c(=O)c(C(=O)Nc2nc3ccccc3[nH]2)c(O)c2ccccc21", "ASSAYED TARGET": "M. tuberculosis H37Rv growth inhibition", "RESULT": 6.41}
{"COMPOUND": "COc1cc(CNCCc2c[nH]c3ccccc23)ccc1OCc1ccccc1F", "ASSAYED TARGET": "M. tuberculosis H37Rv growth inhibition", "RESULT": 4.85}
{"COMPOUND": "COc1ccc(-c2ccc([C@H]3[C@@H]4C=CCC[C@@]4(C)C(=O)N3Cc3ccccc3)c(F)c2)cc1OC", "ASSAYED TARGET": "M. tuberculosis H37Rv growth inhibition", "RESULT": 4.89}
{"COMPOUND": "N=c1c2c(-c3ccccc3)c(-c3ccccc3)n(Cc3ccco3)c2ncn1Cc1ccccc1", "ASSAYED TARGET": "M. tuberculosis H37Rv growth inhibition", "RESULT": 5.56}
{"COMPOUND": "CC1CCCCN1C(=O)COC(=O)/C=C/c1ccc2ccccc2n1 (stereo not given)", "ASSAYED TARGET": "M. tuberculosis H37Rv growth inhibition", "RESULT": 6.09}

Pending compound:
Ask | I have this compound here, Cc1cc2ccccc2n1CCNC(=O)COc1ccc2ccccc2c1 , and I need its recorded pIC50.
Reply | 4.28

###

test system: M. tuberculosis H37Rv growth inhibition; assay: M. tuberculosis H37Rv growth inhibitors, H37Rv strain (AID 1626); conditions: measured here: IC90 against H37Rv
Binary call on IC90 with cut-off 4 µM: strictly below means 1, and equality or higher means 0.

Sample answers from the record:
{"MOLECULE": "O=C1c2cccc3c([N+](=O)[O-])ccc(c23)C(=O)N1c1ccccn1", "ANSWER LABEL": 0}
{"MOLECULE": "O=C(Nc1ccccc1Cl)Oc1ccc(-c2ccccc2)cc1", "ANSWER LABEL": 0}
{"MOLECULE": "Cc1nc(Nc2ccc(Cl)c(Cl)c2)sc1C(=O)Nc1ccccc1", "ANSWER LABEL": 0}
{"MOLECULE": "O=C(CSc1nc2ccccc2o1)Nc1nc(-c2ccccc2)cs1", "ANSWER LABEL": 0}
{"MOLECULE": "CC(=O)c1cccc(NC(=O)/C=C/c2ccc([N+](=O)[O-])s2)c1", "ANSWER LABEL": 0}

Ask | Given the entry O=C(Nc1nc(-c2ccccn2)cs1)c1cc(Cl)ccc1[N+](=O)[O-] , would its reported IC90 be below 4 µM?
Reply | 1

Ask | Criterion: IC90 strictly below 4 µM. Is it met by COc1ccc(-c2cc(C(F)(F)F)n3ncc(C(=O)N4CCCCC4c4cccnc4)c3n2)cc1 (configuration not stated) ?
Reply | 0

Ask | Bench note: check whether Cc1cc(C)cc(OCc2nnc(SCC(=O)OC(C)C)o2)c1 shows IC90 below 4 µM
Reply | 0
